# System: LXFL 529 NSCLC
# assay: NCI tumour cell line growth inhibition, 48 h
assay readout: TGI

// query What does the record list as TGI for COc1cc2c3c(c1OC)-c1ccccc1C(C(O)c1ccccc1)C3N(C)CC2 (stereo not drawn) ?
// result > 100 µM

// query Please answer likewise for CC1(C=O)C(=O)CCC2(C)C3CC(=O)OC3CCC12 (stereo not drawn)
// result > 100 µM

// query Please answer likewise for `C/C(=C1/N=C(c2cc([N+](=O)[O-])ccc2Cl)N(c2ccc(Br)cc2)C1=O)c1cc2ccccc2oc1=O`
// result > 100 µM

---

For each entry below, report its TGI value.
# Test system: SW-620 colon
# assay: NCI tumour cell line growth inhibition, 48 h

// query What does the record list as TGI for `C=C[C@]1(C)C[C@@H](OC(=O)CO)[C@@]2(C)[C@H](C)CC[C@]3(CCC(=O)[C@H]32)[C@@H](C)[C@@H]1O` ?
// result > 100 µM

// query Please answer likewise for `O=C(/C=C/c1ccccc1O)c1cccs1`
// result > 100 µM

// query Please answer likewise for COc1nc(=O)n(C2CC(F)C(CO)O2)cc1C (stereo not given)
// result > 100 µM

// query Please answer likewise for CCCC12Cc3c(OC)ccc(OC)c3CC(Cc3c(OC)ccc(OC)c31)C2=O (stereo not given)
// result > 100 µM

// query Please answer likewise for CC12C=C[C@]3(CC[C@@H]4[C@@](C)(CO)CCC[C@]4(C)C3CC1)C2 (stereo not given in full)
// result 33.8 µM

// query Please answer likewise for `CCCCc1ccc(N2C(=O)c3cc([N+](=O)[O-])cnc3S2(=O)=O)cc1`
// result > 100 µM

// query Please answer likewise for Cc1c2cccc(Sc3ccccc3)c2c2c3c(cccc13)[S+](c1ccccc1)C2 (stereo not given)
// result 16.7 µM

// query Please answer likewise for `C/C1=C\CC[C@@]2(C)O[C@@H]2C[C@@H]2[C@H](C/C(C)=C/CC1)OC(=O)C21CC1`
// result > 100 µM

// query Please answer likewise for `NC(=O)c1cc(Cl)ccc1NC(=O)COc1ccccc1`
// result > 100 µM

// query Please answer likewise for `O=C(Cc1ccc(OCc2ccccc2)cc1)NCc1ccc2c(c1)OCO2`
// result > 100 µM

---

# Test system: HOP-62 NSCLC
# assay: NCI tumour cell line growth inhibition, 48 h
assay readout: TGI (µM)
The answer is to be given in µM; state only the numeric part.

// query What does the record list as TGI for CC12C=C[C@]3(CC[C@@H]4[C@@](C)(CO)CCC[C@]4(C)C3CC1)C2 (some centres undefined) ?
// result 19.9

// query Please answer likewise for `Cc1oc2nc[nH]c(=O)c2c1C(=O)/C=C/c1ccc(Br)cc1`
// result 9.73

// query Please answer likewise for `O=C(Nc1ccc(Cl)cc1)/C(=C(/[O-])c1ccc(Br)cc1)[n+]1cccc(-c2ccc(Cl)cc2)n1`
// result 29.2

// query Please answer likewise for `COc1ccc2[nH]c(=O)c(/C=C/C(=O)c3ccccc3OC)cc2c1`
// result 5.32

---

# Test system: U251 CNS
Where a SMILES comes first, the peptide text is derived from it. [ ]: non-standard residue; d: D form. The star is where a group is joined. ξ: configuration not given here. NMeF = CN[C@@H](Cc1ccccc1)C(=O)O; NMeN = CN[C@@H](CC(N)=O)C(=O)O; NMeV = CN[C@H](C(=O)O)C(C)C; ξNMeV = CNC(C(=O)O)C(C)C; Boc = CC(C)(C)OC(=O)*; ξNMeA = CNC(C)C(=O)O; ξV = CC(C)C(N)C(=O)O
Write down one outcome, taken from class 1 = active, class 0 = inactive

// query Could you kindly confirm the outcome this assay logged for COC(=O)C(C)N(C)C(=O)[C@H](CC(N)=O)N(C)C(=O)[C@@H]1CCCN1C(=O)[C@H](C(C)C)N(C)C(=O)C(C(C)C)N(C)C(=O)[C@H](Cc1ccccc1)N(C)C(=O)C(NC(=O)OC(C)(C)C)C(C)C (some centres undefined) (Boc-[ξV][NMeF][ξNMeV][NMeV]P[NMeN][ξNMeA]-OMe) ?
// result class 0

// query Please answer likewise for `Cc1ccc(/C(=C/C=C(/C#N)C(N)=O)Sc2ncnn2C)cc1`
// result class 0

// query Please answer likewise for `CN1CCN(Cc2ccc(NC(=O)c3cncc(C#Cc4cnc5ccc(Cl)nn45)c3)cc2C(F)(F)F)CC1`
// result class 0

// query Please answer likewise for `CN(C)c1ccc(N=Nc2ccc(Br)cn2)c(O)c1`
// result class 1

// query Please answer likewise for CN1C(=O)C23CC4(C56CC78SSC(CO)(C(=O)N7C5Nc5ccccc56)N(C)C8=O)c5ccccc5NC4N2C(=O)C1(CO)SS3 (centres undefined)
// result class 1

// query Please answer likewise for `CC(C)CNC(=O)c1ccc(NC(=O)N(CC(C)C)C(=O)c2ccc(N)c(OCCCN)c2)c(OCCCN=C(N)N)c1`
// result class 0

// query Please answer likewise for `COc1cccc(-n2ncc3c(N/N=C/c4cccc(F)c4)ncnc32)c1`
// result class 0

// query Please answer likewise for `Oc1ccc(Cl)cc1-c1cc(-c2ccc(Cl)cc2)n[nH]1`
// result class 0

// query Please answer likewise for `CS(=O)(=O)OCCn1c2c(c3c(O)cccc31)C(=O)c1ccccc1-2`
// result class 0

// query Please answer likewise for `Clc1ccc(-c2nc(-c3ccccc3)cn3ccnc23)cc1`
// result class 0

// query Please answer likewise for `c1ccc(-c2nc([P+](c3ccccc3)(c3ccccc3)c3ccccc3)c(N3CCOCC3)o2)cc1`
// result class 0

// query Please answer likewise for `COc1ccc2[nH]c(=O)c(/C=C/C(=O)c3ccccc3OC)cc2c1`
// result class 0

// query Please answer likewise for `COC(=O)CCC1=C(C)C(C)=N/C1=C\c1[nH]c(-c2ccc[nH]2)cc1OC`
// result class 1

// query Please answer likewise for `N=C(N)c1ccc(-c2ccc(-c3cccs3)o2)cc1`
// result class 0
